- System: Chordin-like protein 2 (CHRDL2)
- assay notes: CHRDL2 small-molecule binders, primary screen, biochemical, small-molecule microarray, 635 nm fluorescence (AID 1126);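 also: printed compound slides probed with Chrdl2 protein at 4 µg/mL for 1 h at 4 C; score merges 667 nm emission intensity with signal to noise over three replicate slides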
- condition: small-molecule microarray binding, fluorescence 635 nm; higher = more signal
measure name: composite z-score

// worked examples, composite z-score included
> print(dat)
                                   compound  reading
1  CC(CO)N1C(=O)[C@@H]2[C@H]3C(=O)OCC=C[C@H]3OC23C=CCN(c2ccc(Cl)cc2)C(=O)[C@@H]13 (stereo partly drawn)    -2.12
2  C[C@@]12COC[C@]13C=C(Br)[C@H](C2)[C@@]1(CO1)C3=O   -0.211
3  C[C@]1(C(=O)NCCN2CCOCC2)c2ccccc2C(=O)N(Cc2cc(F)cc(C(F)(F)F)c2)[C@H]1c1ccc(CO)cc1   -0.841
4  O=C1NC(=O)C2C1C=CC(C(O)c1ccccn1)N2Nc1ccc(Cl)cc1Cl (stereo not drawn)    -0.44

Req: Quick one: composite z-score of CN1C(=O)C2C(C1=O)C1C=C(CCCO)C2C(c2cccs2)N1Cc1cc2c(cc1Br)OCO2 (stereo not drawn) ?
Resp: 0.171

Req: Cool, now `O=C(NCCN1CCOCC1)[C@@H]1c2ccccc2C(=O)N(Cc2ccccc2)[C@H]1c1ccc(CO)cc1`
Resp: -1.38

Req: Another compound: COc1cc(C(O)C2C=CC3C(=O)N(Cc4ccccc4)C(=O)C3N2n2cnnc2)cc(OC)c1OC (stereo not drawn)
Resp: -0.141

Req: Same question, `COC(=O)[C@@]1(Cc2ccc(F)cc2)[C@H]2c3cc(C(=O)N(C)C)n(Cc4ccc(O)c(OC)c4)c3C[C@H]2CN1C(=O)c1ccccc1` this time
Resp: -0.109
